Here the recorded melting point is given for each entry.

COMPOUND: O=C(NOCC(O)CO)c1cc(Br)c(F)c(F)c1Nc1ccccc1F (stereo not given)
MEASURED VALUE: 144 °C
--
COMPOUND: CCNC(=O)c1sc(SC)c2c1CCc1sc(-c3ccccc3)nc1-2
MEASURED VALUE: 211 to 212 °C
--
COMPOUND: COC(=O)Cc1cccc(CC(=O)OC)c1[N+](=O)[O-]
MEASURED VALUE: 144 to 145 °C
--
COMPOUND: Fc1ccc(-c2cnc3ccccc3n2)cc1
MEASURED VALUE: 122 °C
--
COMPOUND: CCN(CC)CCNC(=O)COc1cccc(-n2nc(-c3ccc(F)cc3)c3cccnc32)c1
MEASURED VALUE: 137 to 138 °C
--
COMPOUND: ClC(=NN=Cc1cccnc1)c1cccnc1
MEASURED VALUE: 103 to 105 °C
--
COMPOUND: O=C(O)Cc1cc(C(=O)C=Cc2ccc(C(=O)O)cc2)ccc1O
MEASURED VALUE: > 260 °C
--
COMPOUND: Cc1cc(Oc2cc(C)c([N+](=O)[O-])cn2)n[nH]1
MEASURED VALUE: 136 to 139 °C
--
COMPOUND: CN1C[C@H]2c3ccccc3CC[C@H]2CCC1=O (relative stereo)
MEASURED VALUE: 130 to 131 °C
--
COMPOUND: Cn1c(C(F)(F)F)cc(=O)n(C(c2ccc3c(c2)C(=O)NC3=O)c2nsc3ccccc23)c1=O (stereo not given)
MEASURED VALUE: 204 to 208 °C

Input `CCN1CC(NC(=O)c2ccc(OCC=C(C)CCC=C(C)C)cc2)CN1CC` . Output melting point: 95.5 to 97 °C

Input `O=C1NCN(c2ccccc2)C12CCN(CC1=Cc3ccccc3CC1)CC2` . Output melting point: 205 to 206 °C

---

MEASURE NAME: melting point

COMPOUND: C1=C(c2cccs2)CCN(CCCSc2ccncc2)C1
melting point: 86 to 87 °C

COMPOUND: CC1(C)C(C(=O)NO)N(S(=O)(=O)c2ccc(-c3ccc(Br)cc3)cc2)CCS1(=O)=O (centres undefined)
melting point: 190 to 191 °C

COMPOUND: COc1cc(C(=O)NC2CN(C)N(C)C2)cc(OC)c1OC
melting point: 163 to 166 °C

Next up:
Input OC1CSC(Sc2cc(C(F)(F)F)cc(C(F)(F)F)c2)C(O)C1O (centres undefined) . Output melting point: 157 to 158 °C

---

Here the recorded melting point is given for each entry.

QUERY SMILES: CN1CCc2c(Cl)ccc3c4c(n(c23)CC1)CCCC4
melting point: 128 to 130 °C

QUERY SMILES: O=S(=O)(NCCCCC1Cc2ccccc2C1)c1ccc(Cl)cc1
melting point: 77 °C

QUERY SMILES: CCCCCCCCCCCCCCCCOC(=O)c1cnc(C(=O)OCCCCCCCCCCCCCCCC)c2ccccc12
melting point: 80.7 to 81.4 °C

QUERY SMILES: CC(C)c1nc(C(=O)NC2CC2)c(C(=O)O)o1
melting point: 109 to 112 °C

QUERY SMILES: COC(=O)c1c(F)cc(OCCNC(=O)OCc2ccccc2)cc1F
melting point: 95 to 97 °C

QUERY SMILES: CC(C)(C)c1cc(CP(=O)(O)c2ccccc2)cc(C(C)(C)C)c1O
melting point: 185 to 186 °C

QUERY SMILES: CON(C(=O)c1cccnc1Cl)C1CCCCC1
melting point: 96 to 98 °C

QUERY SMILES: CCOC(=O)/C=C/c1ccc(OCOC)c(C)c1OCc1ccc(Cl)cc1Cl
melting point: 110 to 112 °C

Next up:
Input `O=C(CP(=O)(O)O)NC1CCCCC1` . Output melting point: 180 to 183 °C

---

Here the recorded melting point is given for each entry.

Input COC(C(=O)O)C(=O)Oc1cccc(-c2cn3c(n2)sc2ccccc23)c1 (stereo unspecified) . Output melting point: 110 to 113 °C

Input O=C(N[C@H](Cc1cccc(OC(F)(F)C(F)F)c1)[C@@H](O)c1cccc(F)n1)c1cccc2c1C=CCCC2 (racemic) . Output melting point: 151 to 152 °C

Input `NS(=O)(=O)c1cc(C(=O)O)cc(NCCCC(=O)O)c1Oc1ccccc1` . Output melting point: 240 to 241 °C

Input `CN(c1ccccc1)c1ncccc1NC(=O)c1ccccc1Cl` . Output melting point: 145 to 146 °C

Input `COc1ccc(C=Cc2ccc([N+](=O)[O-])cc2)cc1C` . Output melting point: 109 to 111 °C

Input `CC(=O)Nc1ccc(-n2c(N)nc3ccccc32)cc1` . Output melting point: 246 to 248 °C

---

Here the recorded melting point is given for each entry.

Known results for compounds:
COMPOUND: COc1ccc(C2CC(=O)N(c3ccccc3)C2)cc1OC (centres undefined)
MEASURE NAME: melting point
MEASURED VALUE: 104 °C
--
COMPOUND: O=C(ON1C(=O)CCC1=O)c1ccc(-c2ccc(S(=O)(=O)NCCO)cc2)[nH]c1=O
MEASURE NAME: melting point
MEASURED VALUE: 204 to 205 °C
--
COMPOUND: COc1ccc(OC(CCCN(C)C2C3CCC2CNC3)c2ccc(C#N)cc2)cc1OC (centres undefined)
MEASURE NAME: melting point
MEASURED VALUE: 47 to 53 °C

Next up:
Input `CC(C)Oc1ccccc1-c1cc(=O)c2cc(C#N)ccc2o1` . Output melting point: 172 to 175 °C

---

Here the recorded melting point is given for each entry.

Input `c1ccc(COc2ccc(NC3=NN(c4ccccc4)CC3)cc2)cc1` . Output melting point: 187 to 188 °C

---

Here the recorded melting point is given for each entry.

Known results for compounds:
QUERY SMILES: Cc1cccc(-c2nc3ccc(Cl)nn3c2-c2ccnc(N)n2)c1
melting point: 237 to 238 °C
//
QUERY SMILES: COc1cc2c(cc1O)CCN(C(=O)c1cc(OC)c(OC)c(OC)c1)C2
melting point: 172 to 173 °C
//
QUERY SMILES: Nc1nc2ccccc2c2sc(C=Cc3ccccc3)nc12
melting point: 239 to 241 °C
//
QUERY SMILES: N#CC(C#N)=C1CC=CO1
melting point: 194 to 196 °C

Input `Cc1c(C(=O)O)ccc(S(C)(=O)=O)c1N(C)C` . Output melting point: 113 to 114 °C

---

MEASURE NAME: melting point

Known results for molecules:
QUERY SMILES: CCCCCN1Cc2cccc(Cl)c2S1(=O)=O
MEASURE NAME: melting point
MEASURED VALUE: 46 to 48 °C

QUERY SMILES: FC(F)(F)c1cccc(-c2cnnn2-c2cc(Cl)ccc2-c2nnn[nH]2)c1
MEASURE NAME: melting point
MEASURED VALUE: 230 to 232 °C

QUERY SMILES: NC(=S)Nc1ccc(Br)cc1
MEASURE NAME: melting point
MEASURED VALUE: 188 to 189 °C

QUERY SMILES: COc1cc(OC)nc(Sc2sccc2[N+](=O)[O-])n1
MEASURE NAME: melting point
MEASURED VALUE: 199 to 201 °C

Input `CSc1cc(C(C)(C)C)c(O)c(C(C)(C)C)c1` . Output melting point: 69 to 71 °C

---

Here the recorded melting point is given for each entry.

COMPOUND: CCOC(=O)C(C)NNc1cc(F)cc(F)c1 (stereo not given)
melting point: 139 to 141 °C

COMPOUND: C=Cc1ccc(CNc2ccc(Nc3ccccc3)cc2)cc1
melting point: 143 °C

COMPOUND: CNC(=O)N(O)C(C)c1ccc(Cl)cc1 (stereo not given)
melting point: 117 to 120 °C

COMPOUND: N#Cc1cccc(OCc2ccccc2)c1N
melting point: 102 to 103 °C

Next up:
Input `NC(=O)c1cnc(N)c([N+](=O)[O-])c1` . Output melting point: 289 to 290 °C

---

Here the recorded melting point is given for each entry.

Known results for molecules:
MOLECULE: Cc1cc([C@@H]2CCC(=O)N2)on1
melting point: 90 to 91 °C
//
MOLECULE: Cc1cc2c(s1)Nc1ccccc1N=C2N1CCN[C@@H](CCc2ccccc2)C1
melting point: 75 to 84 °C
//
MOLECULE: COc1ccc2c(c1)c(Cc1cc(=O)n(C3CCCC3)[nH]1)c(C)n2C(=O)c1ccc(Cl)cc1
melting point: 153 to 155 °C
//
MOLECULE: Cc1cccc(C)c1NCC(=O)N1CCCO1
melting point: 82 to 83 °C
//
MOLECULE: Cc1cn(-c2cccc(O)c2)cn1
melting point: 203 to 205 °C
//
MOLECULE: COc1ccc2c(c1)C13CCCCC1(CC2)CCN3C (stereo not given)
melting point: 100 to 102 °C
//
MOLECULE: COc1cc2c(cc1OC(C)C)-c1c(-c3cccs3)c3c(n1CC2)C(=O)N(C(C)C)CCNC3
melting point: 242 to 243 °C
//
MOLECULE: COC1CCC(S(=O)(=O)c2ccccc2)O1 (stereo not given)
melting point: 68 °C

Input `CN1CCN(C2=Nc3ccccc3S(=O)(=O)N2)CC1` . Output melting point: 265 to 267 °C
